The following binders are shown together with reported ELISA signal values.
System name: T1, His-tagged P3028 (human, not fully specified)
T1 construct: the tag is put first after 'PGE73=His-tag-P3028'; also called PGE73; not shown: His-tag
T1 peptide: {His‑tag}-VFDEFKPLVEEPQNLIK
Test method notes: chip ELISA
No end group written: not given here.
Form: value (number only, do not type unit).

Binder	ELISA signal
LKLDTFFVKLSLFTER [P28R K1L]	449

Incoming: I have this binder here, KKLDTFFVKLSLFTEN [P28R R16N] , and I need its recorded ELISA signal.
Outgoing: 311

Incoming: I have this binder here, KKLDTFFVKLSLFTEF [P28R R16F] , and I need its recorded ELISA signal.
Outgoing: 297

Incoming: I have this binder here, KKLDTFVVKLSLFTER [P28R F7V] , and I need its recorded ELISA signal.
Outgoing: 527
